protocol text: Selectivity index, ratio of TC50 for human HeLa cells to IC50 for Plasmodium falciparum 3D7
Format: toxicity, cell-based
Each entry below carries its recorded selectivity ratio.

Study these solved cases before continuing.
{"columns": ["mol smiles", "measure name", "reported result"],
 "data": [
  ["COc1cc(OC)c(OC)cc1/C=C/C(=O)c1ccc(Br)cc1", "selectivity ratio", 31.7],
  ["COc1cc(/C=C/C(=O)c2ccc(Cl)cc2)cc(OC)c1OC", "selectivity ratio", 3],
  ["COc1ccc(/C=C/C(=O)c2ccc(Cl)cc2)c(OC)c1", "selectivity ratio", "> 16.6"],
  ["COc1cc(OC)c(OC)cc1/C=C/C(=O)c1ccc(I)cc1", "selectivity ratio", 50]
]}

We now examine a further compound.
Fill in the blank: the reported selectivity ratio of COc1cc(OC)c(OC)cc1/C=C/C(=O)c1ccc(Cl)cc1 is ____.
9

----------
Tested on: Plasmodium falciparum
protocol text: Antimalarial activity against chloroquine-sensitive Plasmodium falciparum 3D7 infected in human O+ erythrocytes after 72 hrs by SYBR Green-1 fluorescence based assay
Type: functional, organism-based
reported conditions: 3D7, 72 h
measure name: log10 of IC50 (log10 of the value in µM)
Values are log10 of IC50 in µM.

{"columns": ["compound", "assay target", "log10 of IC50"],
 "data": [
  ["COc1ccc(/C=C/C(=O)c2ccc(Cl)cc2)cc1", "Plasmodium falciparum", 1.46],
  ["O=C(/C=C/c1cccs1)c1ccc([N+](=O)[O-])cc1", "Plasmodium falciparum", 2.23],
  ["COc1cc(OC)c(OC)cc1/C=C/C(=O)c1ccc(OC)c(OC)c1OC", "Plasmodium falciparum", 0.89]
]}

Requested field: log10 of IC50. Item: COc1cc(OC)c(OC)cc1/C=C/C(=O)c1ccc(Cl)cc1
0.60

Ok, now COc1ccc(/C=C/C(=O)c2ccc(Cl)cc2)c(OC)c1
0.78

Entry COc1cc(OC)c(OC)cc1CCC(O)c1ccc(Cl)cc1 (configuration not stated) please
1.70

Same question for COc1cc(OC)c(OC)cc1/C=C/C(=O)c1ccc(-c2ccc(Br)cc2)cc1 please.
1.67

Repeat for the following compound: COc1cc(OC)c(OC)cc1/C=C/C(=O)c1ccc(Br)cc1
0.26

----------
Recorded IC50, one value per entry.
Test system: Plasmodium falciparum
protocol text: Antimalarial activity against chloroquine-resistant Plasmodium falciparum Dd2 infected in human O+ erythrocytes after 72 hrs by SYBR Green-1 fluorescence based assay
Format: functional, organism-based
reported conditions: Dd2, 72 h
A number alone suffices; assume µM.

{"columns": ["mol smiles", "reported result"],
 "data": [
  ["COc1cc(OC)c(OC)cc1/C=C/C(=O)c1ccc(I)cc1", 7.5],
  ["COc1ccc(/C=C/C(=O)c2ccc(Cl)cc2)c(OC)c1", 6.8],
  ["COc1cc(OC)c(OC)cc1/C=C/C(=O)c1ccc(Br)cc1", 5]
]}

Bench note: what IC50 did COc1cc(OC)c(OC)cc1/C=C/C(=O)c1ccc(Cl)cc1 show?
6.9

Next entry: COc1cc(/C=C/C(=O)c2ccc(Cl)cc2)cc(OC)c1OC
11.5

----------
pIC50 for assorted compounds
Test system: Plasmodium falciparum
protocol text: Antimalarial activity against chloroquine-sensitive Plasmodium falciparum 3D7 infected in human O+ erythrocytes after 72 hrs by SYBR Green-1 fluorescence based assay
Assay type: functional, organism-based
reported conditions: 3D7, 72 h
Kindly note that pIC50 refers to -log10 of the concentration in mol/L and answer with the value alone.

In the examples that follow, each entry is paired with its recorded pIC50.
{"columns": ["compound", "pIC50"],
 "data": [
  ["COc1ccc(/C=C/C(C)=O)c(OC)c1", 4.31],
  ["COc1cc(OC)c(C(CC(=O)c2ccc(Cl)cc2)c2c[nH]c3ccccc23)cc1OC (stereo not given)", 5.07],
  ["COc1cc(OC)c(OC)cc1/C=C/C=C/C(=O)c1ccc(Br)cc1", 4.91],
  ["COc1cc(OC)c(OC)cc1/C=C/C(=O)c1ccc(I)cc1", 5.70],
  ["O=C(/C=C/c1ccc(Cl)cc1)c1ccc(Br)cc1", 4.30],
  ["COc1cc(OC)c(OC)cc1/C=C/C(=O)/C=C/c1ccc(Br)cc1", 4.74]
]}

Recorded pIC50 for COc1cc(OC)c(/C=C/C(=O)c2ccc(Cl)cc2)c(OC)c1 , please?
5.10

Try O=C(/C=C/c1ccc(Cl)cc1)c1ccc([N+](=O)[O-])cc1 next.
4.11

----------
System: Plasmodium falciparum
protocol text: Antimalarial activity against chloroquine-sensitive Plasmodium falciparum 3D7 infected in human O+ erythrocytes after 72 hrs by SYBR Green-1 fluorescence based assay
Format: functional, organism-based
reported conditions: 3D7, 72 h
measure name: IC50 (µM)
Express it in µM; write the number only.

Sample records with IC50:
{"columns": ["compound", "unit name", "IC50"],
 "data": [
  ["C=CCn1cc(C(CC(=O)c2ccc(Cl)cc2)c2cc(OC)c(OC)cc2OC)c2ccccc21 (centres undefined)", "µM", 8.4],
  ["C=CCn1cc(/C(=C\\C(=O)c2ccc(Br)cc2)c2cc(OC)c(OC)cc2OC)c2ccccc21", "µM", 17.5],
  ["O=C(/C=C/c1ccc(Cl)cc1)c1ccc(Cl)cc1", "µM", 65],
  ["C=CC(C)(C)c1cc(/C=C/C(=O)c2ccc(O)cc2)c(OC)cc1O", "µM", 4.1]
]}

Query the reported IC50 for Plasmodium falciparum; item: C=CCOc1ccc(C(=O)/C=C/c2ccc(Cl)cc2)cc1
75

// repeat for COc1ccc(C(=O)/C=C/c2ccc(Cl)cc2)cc1 and report
88

Query COc1ccc(C(=O)/C=C/c2cc(OC)c(OC)cc2OC)cc1 next
11.5

Would you mind doing O=C(/C=C/c1ccc(Cl)cc1)c1ccc(O)cc1 as well?
30

Quick one: COc1cc(/C=C/C(=O)c2ccc(Cl)cc2)cc(OC)c1OC
4.6

Subsequent entry: O=C(/C=C/c1ccc(Cl)cc1)c1ccc2c(c1)OCO2
97.9

Param item: COc1cc(OC)c(OC)cc1CCC(=O)c1ccc(Cl)cc1
64

----------
Tested on: Plasmodium falciparum
protocol text: Antimalarial activity against chloroquine-sensitive Plasmodium falciparum 3D7 infected in human O+ erythrocytes after 72 hrs by SYBR Green-1 fluorescence based assay
Assay type: functional, organism-based
reported conditions: 3D7, 72 h
pIC50: −log10 of the molar value.
measure name: pIC50

Examples with their reported pIC50 follow.
{"columns": ["mol smiles", "measure name", "reported result"],
 "data": [
  ["COc1ccc(C(=O)/C=C/c2ccc(Cl)c(Cl)c2)cc1", "pIC50", "< 3.70"],
  ["O=C(/C=C/c1ccco1)c1ccc([N+](=O)[O-])cc1", "pIC50", "< 3.70"]
]}

# next compound below
Find the recorded pIC50 belonging to COc1cc(OC)c(OC)cc1/C=C/C(=O)c1ccc([N+](=O)[O-])cc1 and report it.
< 3.70
